Target or system Vascular endothelial growth factor receptor 2 (Homo sapiens): recorded pIC50 listed per item.
Numbers only, as −log10 of the molar value.

Examples with answers:
compound_smiles=Cc1ccn(-c2ccc(-n3cccn3)cc2)c(=O)c1-c1ccc2nc(N)ncc2c1 result_value=5.47
compound_smiles=Cc1ccn(CCC2CCCC2)c(=O)c1-c1ccc2nc(N)ncc2c1 result_value=5.85
compound_smiles=Cc1ccn(-c2ccc(C(C)(C)C)cc2)c(=O)c1-c1ccc2nc(N)ncc2c1 result_value=7.96
compound_smiles=Cc1ccn(-c2ccc(C(F)(F)F)cc2)c(=O)c1-c1ccc2nc(N)ncc2c1 result_value=5.74

Please look at the following compound next.
Ask: Using the record for Cc1ccn(-c2ccc(N3CCOCC3)cc2)c(=O)c1-c1ccc2nc(N)ncc2c1 , report its pIC50.
Result: 5.36

----------
target: Platelet-derived growth factor receptor alpha (Homo sapiens, UniProt P16234)
Sequence (P16234 whole entry): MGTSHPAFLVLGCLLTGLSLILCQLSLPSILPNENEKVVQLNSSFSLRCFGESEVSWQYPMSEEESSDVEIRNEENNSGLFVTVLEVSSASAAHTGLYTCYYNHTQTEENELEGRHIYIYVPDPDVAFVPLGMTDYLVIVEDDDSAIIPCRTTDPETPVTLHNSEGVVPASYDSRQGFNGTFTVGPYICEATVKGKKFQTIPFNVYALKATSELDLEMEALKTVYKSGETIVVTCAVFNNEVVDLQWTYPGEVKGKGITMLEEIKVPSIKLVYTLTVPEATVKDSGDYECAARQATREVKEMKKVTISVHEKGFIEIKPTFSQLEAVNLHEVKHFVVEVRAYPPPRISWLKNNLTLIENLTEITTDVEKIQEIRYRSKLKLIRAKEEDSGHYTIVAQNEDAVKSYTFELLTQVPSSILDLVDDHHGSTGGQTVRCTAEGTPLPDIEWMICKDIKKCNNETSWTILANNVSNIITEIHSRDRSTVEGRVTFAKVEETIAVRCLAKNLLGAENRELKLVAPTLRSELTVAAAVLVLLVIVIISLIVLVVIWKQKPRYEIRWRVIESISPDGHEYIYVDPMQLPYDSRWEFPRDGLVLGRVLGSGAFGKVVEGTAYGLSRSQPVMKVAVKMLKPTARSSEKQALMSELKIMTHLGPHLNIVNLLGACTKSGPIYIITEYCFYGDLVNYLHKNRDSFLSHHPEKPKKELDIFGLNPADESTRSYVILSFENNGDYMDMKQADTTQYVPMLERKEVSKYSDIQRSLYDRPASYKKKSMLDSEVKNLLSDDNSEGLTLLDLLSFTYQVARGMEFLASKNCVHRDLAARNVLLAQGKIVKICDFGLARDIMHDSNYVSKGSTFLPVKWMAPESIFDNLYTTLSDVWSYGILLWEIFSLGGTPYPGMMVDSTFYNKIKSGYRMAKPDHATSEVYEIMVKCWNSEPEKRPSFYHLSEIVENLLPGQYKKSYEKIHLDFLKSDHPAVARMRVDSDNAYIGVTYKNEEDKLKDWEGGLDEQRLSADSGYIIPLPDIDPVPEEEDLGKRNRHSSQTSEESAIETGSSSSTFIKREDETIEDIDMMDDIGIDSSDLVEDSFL
Endpoint Name: IC50 (nM)
Numbers only, in nM.

Ask: Using the record for Cc1ccn(-c2cccc(C(F)(F)F)c2)c(=O)c1-c1ccc2nc(N)ncc2c1 , report its IC50.
Result: 9

----------
experiment: Oral bioavailability in Sprague-Dawley rat at 10 mg/kg; type: ADME, organism-based; settings: in vivo
Provide the recorded bioavailability for the entries that follow.
One number for each entry, in %.

compound_smiles=Cc1ccn(-c2ccc(-c3ncco3)cc2)c(=O)c1-c1ccc2nc(N)ncc2c1 result_value=39

Please look at the following molecule next.
Ask: Using the record for Cc1ccn(-c2cccc(C(F)(F)F)c2)c(=O)c1-c1ccc2nc(N)ncc2c1 , report its bioavailability.
Result: 25

----------
assay: Clearance in Sprague-Dawley rat at 1 mg/kg, iv; format: ADME, organism-based; design: dose 1 mg/kg, route intravenous; conditions: in vivo
Provide the recorded clearance for the entries that follow.
One number for each entry, in mL/min/kg.

Go through the items and report each one's clearance.
1. Cc1ccn(-c2ccc(-c3ncco3)cc2)c(=O)c1-c1ccc2nc(N)ncc2c1
2. Cc1ccn(-c2cccc(C(F)(F)F)c2)c(=O)c1-c1ccc2nc(N)ncc2c1
3. Cc1ccc(-n2ccc(C)c(-c3ccc4nc(N)ncc4c3)c2=O)cc1F

Result:
7.67
41
32.5
